Taken from patent US12180192B2.

Target: human thyroid receptor alpha ligand-binding domain (LBD) (Homo sapiens)
Assay: TR-FRET thyroid receptor alpha coactivator assay (THR biochemical assay, Assay 1)
Details: Table 4, THR-alpha, read-out: Activity category Assay 1 (EC50, THR-alpha agonist activity)
pEC50: −log10 of the molar value.
Let's look at some compounds and their measured pEC50.

Solved entries:
[[record]]
compound = "CC1(C)CN(c2cc(Oc3c(Cl)cc(-n4nc(N)c(=O)[nH]c4=O)cc3Cl)n[nH]c2=O)C1"
test_result = "6.00 to 6.60"

[[record]]
compound = "Nc1nn(-c2cc(Cl)c(Oc3cc(C4Cc5ccccc54)c(=O)[nH]n3)c(Cl)c2)c(=O)[nH]c1=O (single isomer, unassigned) [Compound 165]"
test_result = "6.00 to 6.60"

[[record]]
compound = "CC1(C)CC(c2cc(Oc3c(Cl)cc(-n4nc(N)c(=O)[nH]c4=O)cc3Cl)n[nH]c2=O)C1"
test_result = "6.00 to 6.60"

[[record]]
compound = "Nc1nn(-c2cc(Cl)c(Oc3n[nH]c(=O)cc3-c3cc4ccccn4n3)c(Cl)c2)c(=O)[nH]c1=O"
test_result = "4.60 to 6.00"

[[record]]
compound = "Cc1cc(-n2nc(C#N)c(=O)[nH]c2=O)cc(C)c1Cc1ccc2[nH]c(=O)cc(C(C)C)c2c1"
test_result = "6.60 to 7.30"


Tell me reported pEC50 for CC(C)(C)c1cc(Oc2c(Cl)cc(-n3nc(N)c(=O)[nH]c3=O)cc2Cl)n[nH]c1=O , tested with human thyroid receptor alpha ligand-binding domain (LBD) (Homo sapiens). 6.00 to 6.60

Now consider Nc1nn(-c2cc(Cl)c(Oc3n[nH]c(=O)cc3-c3cccc(F)c3)c(Cl)c2)c(=O)[nH]c1=O and answer again. < 4.60

Now consider CC(C)c1cc(Oc2c(Br)cc(-n3nc(N)c(=O)[nH]c3=O)cc2Br)n[nH]c1=O and answer again. > 7.30

Now consider CC(C)c1c[nH]c2nnc(Oc3c(Cl)cc(-n4nc(N)c(=O)[nH]c4=O)cc3Cl)cc12 and answer again. 6.00 to 6.60

Now consider Nc1nn(-c2cc(Cl)c(Oc3cc(C(O)C4CCCC4)c(=O)[nH]n3)c(Cl)c2)c(=O)[nH]c1=O (stereo not drawn) and answer again. 6.00 to 6.60

Now consider O=c1cnn(-c2cc(Cl)c(Oc3cc(-c4ccc5ccccc5c4)c(=O)[nH]n3)c(Cl)c2)c(=O)[nH]1 and answer again. 4.60 to 6.00

Now consider CC(C)c1c[nH]c2ccc(Oc3c(Cl)cc(-n4nc(C#N)c(=O)[nH]c4=O)cc3Cl)nc12 and answer again. < 4.60

Now consider Nc1nn(-c2cc(Cl)c(Oc3cc(C45CCC(C4)C5)c(=O)[nH]n3)c(Cl)c2)c(=O)[nH]c1=O and answer again. 6.00 to 6.60

Now consider Cc1cccc(-c2cc(Oc3c(Cl)cc(-n4nc(N)c(=O)[nH]c4=O)cc3Cl)n[nH]c2=O)c1 and answer again. 6.60 to 7.30

Now consider CC(C)c1n[nH]c2nnc(Oc3c(Cl)cc(-n4nc(N)c(=O)[nH]c4=O)cc3Cl)cc12 and answer again. 6.60 to 7.30

====

Target: human thyroid receptor alpha ligand-binding domain (LBD) (Homo sapiens, UniProt P10827)
Sequence (P10827 163-410 isoform P10827-2 limits assumed, other chains not shown): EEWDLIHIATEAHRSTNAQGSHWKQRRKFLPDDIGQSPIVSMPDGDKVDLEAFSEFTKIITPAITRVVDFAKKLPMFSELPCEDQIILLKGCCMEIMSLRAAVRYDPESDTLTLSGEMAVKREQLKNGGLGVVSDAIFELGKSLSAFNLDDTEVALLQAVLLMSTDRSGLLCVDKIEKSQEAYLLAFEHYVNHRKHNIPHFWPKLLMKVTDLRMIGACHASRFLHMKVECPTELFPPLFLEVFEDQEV
Assay: TR-FRET thyroid receptor alpha coactivator assay (THR biochemical assay, Assay 1)
Settings: Table 4, THR-alpha, read-out: Activity category Assay 1 (EC50, THR-alpha agonist activity)
Let's look at some molecules and their measured EC50.

Solved entries:
[[record]]
molecule = "CC(C)c1cc(Oc2c(Cl)cc(-n3nc(N)c(=O)[nH]c3=O)cc2Br)n[nH]c1=O [Compound 80]"
test_result = "50 to 250 nM"

[[record]]
molecule = "Cc1cc(-n2nc(N)c(=O)[nH]c2=O)cc(C)c1Cc1cc2c(C(C)C)c[nH]c2cn1 [Compound 157]"
test_result = "250 to 1000 nM"


Suppose we examine the molecule Nc1nn(-c2cc(Cl)c(Oc3cc(-c4ccc5ccnnc5c4)c(=O)[nH]n3)c(Cl)c2)c(=O)[nH]c1=O [Compound 110] ; what EC50 value has been reported? > 25000 nM

Now consider N#Cc1nn(-c2cc(Cl)c(Oc3ccc4[nH]ccc4c3)c(Cl)c2)c(=O)[nH]c1=O [Compound 47] and answer again. < 50 nM

Now consider CC(c1cc(Oc2c(Cl)cc(-n3nc(N)c(=O)[nH]c3=O)cc2Cl)n[nH]c1=O)C1CC(F)(F)C1 (single isomer, unassigned) [Compound 61-B] and answer again. 1000 to 25000 nM

Now consider Cc1ccc(-c2cc(Oc3c(Cl)cc(-n4nc(N)c(=O)[nH]c4=O)cc3Cl)n[nH]c2=O)cc1C [Compound 112] and answer again. 250 to 1000 nM

Now consider N#Cc1nn(-c2cc(Cl)c(Oc3ccc4[nH]cc(C5CCCC5)c4c3)c(Cl)c2)c(=O)[nH]c1=O [Compound 5] and answer again. > 25000 nM

====

Target: human thyroid receptor beta ligand-binding domain (LBD) (Homo sapiens, UniProt P10828)
Construct: purchased Invitrogen
Sequence (P10828 217-461 limits assumed): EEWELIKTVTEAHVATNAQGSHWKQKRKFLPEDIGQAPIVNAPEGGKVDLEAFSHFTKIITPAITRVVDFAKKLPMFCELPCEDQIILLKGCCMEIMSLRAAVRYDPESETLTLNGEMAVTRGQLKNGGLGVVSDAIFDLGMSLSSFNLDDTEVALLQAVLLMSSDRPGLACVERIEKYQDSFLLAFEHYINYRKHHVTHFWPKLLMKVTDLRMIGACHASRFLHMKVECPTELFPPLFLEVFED
Test: TR-FRET thyroid receptor beta coactivator assay (THR biochemical assay, Assay 1)
Details: Table 5; Assay 1; THRβ; read-out: Activity category Assay 1 THRβ (Emax)
measured endpoint: Emax

Solved entries:
[[record]]
test_smiles = "CCCc1c[nH]c2ccc(Oc3c(Cl)cc(-n4nc(C#N)c(=O)[nH]c4=O)cc3Cl)cc12"
system_name = "human thyroid receptor beta ligand-binding domain (LBD) (Homo sapiens, UniProt P10828)"
test_result = "50 to 75%"

[[record]]
test_smiles = "CC(C)c1c[nH]c2ccc(Oc3c(Cl)cc(-n4nc(C#N)c(=O)[nH]c4=O)cc3Cl)nc12"
system_name = "human thyroid receptor beta ligand-binding domain (LBD) (Homo sapiens, UniProt P10828)"
test_result = "< 50%"

[[record]]
test_smiles = "Nc1nn(-c2cc(Cl)c(Oc3n[nH]c(=O)cc3-c3ccccc3)c(Cl)c2)c(=O)[nH]c1=O"
system_name = "human thyroid receptor beta ligand-binding domain (LBD) (Homo sapiens, UniProt P10828)"
test_result = "< 50%"

[[record]]
test_smiles = "CC1(C)C(=O)Nc2nnc(Oc3c(Cl)cc(-n4nc(C#N)c(=O)[nH]c4=O)cc3Cl)cc21"
system_name = "human thyroid receptor beta ligand-binding domain (LBD) (Homo sapiens, UniProt P10828)"
test_result = "50 to 75%"


Suppose we examine the compound Nc1nn(-c2cc(Cl)c(Oc3ccc4c(c3)C3(CCCC3)C(=O)N4)c(Cl)c2)c(=O)[nH]c1=O ; what Emax value has been reported? 50 to 75%

Now consider Cc1cncc(-c2cc(Oc3c(Cl)cc(-n4ncc(=O)[nH]c4=O)cc3Cl)n[nH]c2=O)c1 and answer again. < 50%

Now consider CC(C)c1n[nH]c2nnc(Oc3c(Cl)cc(-n4nc(N)c(=O)[nH]c4=O)cc3Cl)cc12 and answer again. > 75%

====

Target: human thyroid receptor beta ligand-binding domain (LBD) (Homo sapiens, UniProt P10828)
Construct: purchased Invitrogen
Test: TR-FRET thyroid receptor beta coactivator assay (THR biochemical assay, Assay 1)
Details: Table 5; Assay 1; THRβ; read-out: Activity category Assay 1 THRβ (Emax)
Description: The TR-FRET thyroid receptor beta coactivator assay was used with slight, optimized modifications of the manufacturer's protocol (Invitrogen). […] The energy transfer is detected as an increase in the fluorescence emission of the fluorescein acceptor, and a decrease in the fluorescence emission of the terbium donor. […]
Let's look at some molecules and their measured Emax.

Solved entries:
[[record]]
molecule = "Nc1nn(-c2cc(Cl)c(Oc3n[nH]c(=O)cc3-c3cccc(F)c3)c(Cl)c2)c(=O)[nH]c1=O [Compound 69-A]"
test_result = "< 50%"

[[record]]
molecule = "Nc1nn(-c2cc(Cl)c(Oc3cc(Cc4ccc(O)cn4)c(=O)[nH]n3)c(Cl)c2)c(=O)[nH]c1=O [Compound 161]"
test_result = "< 50%"

[[record]]
molecule = "CC(C)/C=C1\\C(=O)Nc2ccc(Oc3c(Cl)cc(-n4nc(N)c(=O)[nH]c4=O)cc3Cl)cc21 [Compound 147]"
test_result = "50 to 75%"


Suppose we examine the molecule C[C@H](c1cc(Oc2c(Cl)cc(-n3nc(N)c(=O)[nH]c3=O)cc2Cl)n[nH]c1=O)C1CCC1 [Compound 168] ; what Emax value has been reported? < 50%

Now consider Cc1cc(-c2cc(Oc3c(Cl)cc(-n4ncc(=O)[nH]c4=O)cc3Cl)n[nH]c2=O)ccn1 [Compound 141] and answer again. < 50%

Now consider CO[C@H]1C[C@@H](c2cc(Oc3c(Cl)cc(-n4nc(N)c(=O)[nH]c4=O)cc3Cl)n[nH]c2=O)C1 [Compound 103] and answer again. < 50%

Now consider Cc1c(-n2nc(N)c(=O)[nH]c2=O)cc(Cl)c(Oc2cc(C(C)C)c(=O)[nH]n2)c1Cl [Compound 35] and answer again. 50 to 75%

Now consider Cc1cc(-n2nc(N)c(=O)[nH]c2=O)cc(C)c1Cc1ccc2c(c1)C1(CCCC1)C(=O)N2 [Compound 150] and answer again. < 50%

Now consider O=c1cc(-c2ccc3sccc3c2)c(Oc2c(Cl)cc(-n3ncc(=O)[nH]c3=O)cc2Cl)n[nH]1 [Compound 136] and answer again. < 50%

Now consider Nc1nn(-c2cc(Cl)c(Oc3cc(C4CCc5ccccc54)c(=O)[nH]n3)c(Cl)c2)c(=O)[nH]c1=O (centres unmarked) [Compound 156] and answer again. < 50%

Now consider Cc1cccc(-c2cc(=O)[nH]nc2Oc2c(Cl)cc(-n3ncc(=O)[nH]c3=O)cc2Cl)c1 [Compound 140] and answer again. < 50%

Now consider Nc1nn(-c2cc(Cl)c(Oc3cc(C4CC5(CC5)C4)c(=O)[nH]n3)c(Cl)c2)c(=O)[nH]c1=O [Compound 93] and answer again. < 50%

Now consider CC(C)c1cc(Cc2c(Cl)cc(-n3nc(N)c(=O)[nH]c3=O)cc2Cl)n[nH]c1=O [Compound 36] and answer again. 50 to 75%

Now consider Cc1ccc(-c2cc(Oc3c(Cl)cc(-n4nc(N)c(=O)[nH]c4=O)cc3Cl)n[nH]c2=O)cc1C [Compound 112] and answer again. < 50%
